Give measured MIC for each item. Keep answers brief.
System: Pichia kudriavzevii
Assay: Antifungal activity against Candida krusei ATCC 6258 assessed as inhibition of fungal growth measured after 48 hrs by CLSI based agar dilution method
Assay type: functional
Your answer is read as µg/mL, so omit the unit and give the number.

Request: Quick check: MIC on Pichia kudriavzevii, item CC(=O)NNC(=O)[C@H]1[C@@H]2C[C@@H](O[C@@H]3O[C@H](C)[C@@H](O)[C@H](N)[C@@H]3O)/C=C/C=C/C=C/C=C/C=C/C=C/C=C/[C@H](C)[C@@H](O)[C@@H](C)[C@H](C)OC(=O)C[C@H](O)C[C@H](O)CC[C@@H](O)[C@H](O)C[C@H](O)C[C@](O)(C[C@@H]1O)O2 ?
Response: 1

Request: Please provide the recorded MIC for CNCC(=O)N[C@@H]1[C@H](O)[C@H](O[C@H]2/C=C/C=C/C=C/C=C/C=C/C=C/C=C/[C@H](C)[C@@H](O)[C@@H](C)[C@H](C)OC(=O)C[C@H](O)C[C@H](O)CC[C@@H](O)[C@H](O)C[C@H](O)C[C@]3(O)C[C@H](O)[C@@H](C(=O)N4CCN(CCCO)CC4)[C@H](C2)O3)O[C@H](C)[C@H]1O , tested on Pichia kudriavzevii.
Response: 2

Request: # query: MIC | item CNCC(=O)N[C@@H]1[C@H](O)[C@H](O[C@H]2/C=C/C=C/C=C/C=C/C=C/C=C/C=C/[C@H](C)[C@@H](O)[C@@H](C)[C@H](C)OC(=O)C[C@H](O)C[C@H](O)CC[C@@H](O)[C@H](O)C[C@H](O)C[C@]3(O)C[C@H](O)[C@@H](C(=O)NCCCN(C)C)[C@H](C2)O3)O[C@H](C)[C@H]1O | system: Pichia kudriavzevii
Response: 16

Request: Write down the reported MIC of CCC(=O)NNC(=O)[C@H]1[C@@H]2C[C@@H](O[C@@H]3O[C@H](C)[C@@H](O)[C@H](N)[C@@H]3O)/C=C/C=C/C=C/C=C/C=C/C=C/C=C/[C@H](C)[C@@H](O)[C@@H](C)[C@H](C)OC(=O)C[C@H](O)C[C@H](O)CC[C@@H](O)[C@H](O)C[C@H](O)C[C@](O)(C[C@@H]1O)O2 , test system: Pichia kudriavzevii.
Response: 0.5

Request: Notebook: pull reported MIC for Pichia kudriavzevii, entry CNCC(=O)N[C@@H]1[C@H](O)[C@H](O[C@H]2/C=C/C=C/C=C/C=C/C=C/C=C/C=C/[C@H](C)[C@@H](O)[C@@H](C)[C@H](C)OC(=O)C[C@H](O)C[C@H](O)CC[C@@H](O)[C@H](O)C[C@H](O)C[C@]3(O)C[C@H](O)[C@@H](C(=O)NNC(=O)OC)[C@H](C2)O3)O[C@H](C)[C@H]1O
Response: 2

Request: Find the measured MIC: item CNCC(=O)N[C@@H]1[C@H](O)[C@H](O[C@H]2/C=C/C=C/C=C/C=C/C=C/C=C/C=C/[C@H](C)[C@@H](O)[C@@H](C)[C@H](C)OC(=O)C[C@H](O)C[C@H](O)CC[C@@H](O)[C@H](O)C[C@H](O)C[C@]3(O)C[C@H](O)[C@@H](C(=O)N4CCN(CCO)CC4)[C@H](C2)O3)O[C@H](C)[C@H]1O , target or system Pichia kudriavzevii.
Response: 2

Request: MIC of CNCC(=O)N[C@@H]1[C@H](O)[C@H](O[C@H]2/C=C/C=C/C=C/C=C/C=C/C=C/C=C/[C@H](C)[C@@H](O)[C@@H](C)[C@H](C)OC(=O)C[C@H](O)C[C@H](O)CC[C@@H](O)[C@H](O)C[C@H](O)C[C@]3(O)C[C@H](O)[C@@H](C(=O)N4CCN(CC(C)(O)CO)CC4)[C@H](C2)O3)O[C@H](C)[C@H]1O (some centres not stated) on Pichia kudriavzevii?
Response: 8

Request: Short answer please: MIC, Pichia kudriavzevii, entry C[C@@H]1[C@H](O)[C@@H](C)/C=C/C=C/C=C/C=C/C=C/C=C/C=C/[C@H](O[C@@H]2O[C@H](C)[C@@H](O)[C@H](NC(=O)CN)[C@@H]2O)C[C@@H]2O[C@](O)(C[C@@H](O)C[C@@H](O)[C@H](O)CC[C@@H](O)C[C@@H](O)CC(=O)O[C@H]1C)C[C@H](O)[C@H]2C(=O)NCCO
Response: 4

Request: So what MIC did C[C@@H]1[C@H](O)[C@@H](C)/C=C/C=C/C=C/C=C/C=C/C=C/C=C/[C@H](O[C@@H]2O[C@H](C)[C@@H](O)[C@H](NC(=O)CN)[C@@H]2O)C[C@@H]2O[C@](O)(C[C@@H](O)C[C@@H](O)[C@H](O)CC[C@@H](O)C[C@@H](O)CC(=O)O[C@H]1C)C[C@H](O)[C@H]2C(=O)NCCN(C)C get with Pichia kudriavzevii?
Response: 16

Request: Param readout = MIC; param system = Pichia kudriavzevii; param query = C[C@@H]1[C@H](O)[C@@H](C)/C=C/C=C/C=C/C=C/C=C/C=C/C=C/[C@H](O[C@@H]2O[C@H](C)[C@@H](O)[C@H](NC(=O)CN)[C@@H]2O)C[C@@H]2O[C@](O)(C[C@@H](O)C[C@@H](O)[C@H](O)CC[C@@H](O)C[C@@H](O)CC(=O)O[C@H]1C)C[C@H](O)[C@H]2C(=O)NCCN ; response: value
Response: 0.5

Request: Pichia kudriavzevii / MIC / C[C@@H]1[C@H](O)[C@@H](C)/C=C/C=C/C=C/C=C/C=C/C=C/C=C/[C@H](O[C@@H]2O[C@H](C)[C@@H](O)[C@H](NC(=O)COCCN)[C@@H]2O)C[C@@H]2O[C@](O)(C[C@@H](O)C[C@@H](O)[C@H](O)CC[C@@H](O)C[C@@H](O)CC(=O)O[C@H]1C)C[C@H](O)[C@H]2C(=O)N1CCN(CCO)CC1 : value?
Response: 16

Request: Give MIC (Pichia kudriavzevii) of the following compound: COC(=O)NNC(=O)[C@H]1[C@@H]2C[C@@H](O[C@@H]3O[C@H](C)[C@@H](O)[C@H](NC(=O)CN)[C@@H]3O)/C=C/C=C/C=C/C=C/C=C/C=C/C=C/[C@H](C)[C@@H](O)[C@@H](C)[C@H](C)OC(=O)C[C@H](O)C[C@H](O)CC[C@@H](O)[C@H](O)C[C@H](O)C[C@](O)(C[C@@H]1O)O2
Response: 0.5
